test: soluble on expression in E. coli; label from the status in PepcDB or PDB records
Quantity: soluble on expression in E. coli

>>> measurement("MGSDKIHHHHHHMENLLEVQQLNKSYKNSEFQLTDITFSVKPGEVVGLIGKNGSGKSTLINTLVGNRHKDNGSLKFFNKEVTENDFKYKEHLGVVFDDLRVPDKLTLQSINKVFTEIYDAWNSDTFFSLIKAFELPTNNQIKTFSRGMRMKAALTIALSHDAKLLILDEATAGMDVSGREHVLEILEDYLGDDRAILISSHISEDIEQLATQLVFMRDGRIILKESKEVLLSQYGIIDQPVEHFNISNEYLIATRRRNDRQISLVNNYQKVPDAQPLKTIDDATKIIMRGEV")
"not soluble"
>>> measurement("MSLNPANLPFDSDTMLQGLRAWVECESPTWDTAAVERMLDLAAREMAIMGATIERIAGRQGFAGCVRARFPHPKQGEPGILIAGHLDTVHPVGTLSKLPFRREGNKAFGPGIFDMKGGNYLTLEAIKQLARASFTTPLPITVLFTPDEEVGTPSTRDIIEAEAARNKYVLVPEPGRPDNGVVTGRYAIARFNLEAIGKPSHAGATLSSGRSAIREMAKQILAIDAMTTEDCTFSVGIVHGGQWVNCVATTCTGEALSMAKRQADLDRGVDRMLALSGSSSDVTFKVTRGVTRPVWEPDSGTMALYEKARAVASQLGVSLPHGSAGGGSDGNFTGAMGIPTLDGLGVRGADAHTLNEHIEVDSLAERGRLMAGLLATLEEGHHHHHH")
"not soluble"
>>> measurement("GPGSMTRRNAMSDNTTSTSSVTPERYPFCIVWTDIPLVSWLFPFVGHVGICDSTGRIFDFEGSYCIGVDHMLFGNPVKYWDISAMYVPSSRFPPGGLLSGDVEERRRRETEEYDRALSGVTTRFRKTQTYNFFTNNCHSYVASVLEEMTNGPRRPWNMFWIAWGLAIHGRSLLKSPSSLPRYRRPLCDRRCTLGLTRSK")
"not soluble"

###

test: soluble on expression in E. coli; label from the status in PepcDB or PDB records
Quantity: soluble on expression in E. coli

>>> measurement("MGVLDHVSEYFDCSHGSSKRHKSLQTVDVRVLIDCEGCERKVRRALEGMRGIRDVTIEPNAQKVTVVGYVEPNKVVARIIHRTGKRAELYPFVPYDVVAHPYASGVYDNRAPTGYVRNTEYDPHVSRLARASSTEVRYTTAFSDENASACVVM")
"soluble"
>>> measurement("MIIDQQLVCYKRLPNWTATTLPEMVTQKHNTKVGTWAKLTILSGTLHFYELDEQGEITAEHLFTPETEIPFVEPQSWHRIAAASDNLECYLSFYCKPEDYMAKKYDTKAHSEVLEAVQSGHIKPGRTLDLGCGHGRNALYLASLGHEVTAVDINNEATQRIQMIADEESYNVRAGYYDINVSALPESETFDFILSTVVFMFLDPNQIPAIIQNMQERTSIGGYNLIVCAMDTEEHPCTMPFPFTFEEGELKNYYSDWELIKYNENLGHLHRLDEHGNPIALQFATMLAKKVTLEHHHHHH")
"soluble"

###

assay: soluble on expression in E. coli; label from the status in PepcDB or PDB records
Quantity: soluble on expression in E. coli

>>> measurement("MILIADSGSTKTDWCVVLNGAVIKRLGTKGINPFFQSEEEIQQKLTASLLPQLPEGKFNAVYFYGAGCTPEKAPVLRRAIADSLPVIGNIKANSDMLAAAHGLCGQKAGIACILGTGSNSCFYNGKEIVSNISPLGFILGDEGSGAVLGKLLVGDILKNQLPATLKEEFLKQFDLTPPEIIDRVYRQPFPNRFLASLSPFIAQHLEEPAIRQLVMNSFIAFFRRNVMQYDYKQYPVHFIGSIAYCYKEILQDAARQTGIQIGKILQSPMEGLIQYHSQLSFHPLEHHHHHH")
"soluble"
>>> measurement("PSGFPQNLHVTGLTTSTTELAWDPPVLAERNGRIISYTVVFRDINSQQELQNITTDTRFTLTGLKPDTTYDIKVRAWTSKGSGPLSPSIQSRTMPV")
"soluble"

###

assay: soluble on expression in E. coli; label from the status in PepcDB or PDB records
Quantity: soluble on expression in E. coli

Answered examples (5):
>>> measurement("MSLAEVTVVNFGGANGDAQKAAFNKPFEAQTGNKVTAVEYNGEQAKIKAMVEAKHVNWDVVEVESGDIGRGCDEGLFEKLDWSKIAKKADLVPEAPHTCGVGFFVWSTALAYNADKLKAAPSGWADFWDVKKFPGKRGMRKGARYNLEFALMADGVPVKDVYKVLATKDGQNRAFKKLDQLKPYIQWWEAGAQPPQFLVAGDVVMSTAFNGRIDAAQREGKNLKVVWNGSIYDLDYWAIPKGTPNKALAEQYIAYTLSQKAQQEYAKHIAYGPANLAAIKALDAKTQANLPNSPENGKSAVLQNLQFWTDHGDELEQRFASWASKEGHHHHHH")
"soluble"
>>> measurement("MGSDKIHHHHHHMEKRYQIFISSTFIDLKDERQAALKAILEIDHMPAGMELFSATDDSAWQLIQDVIDSSDYYILIVGGRYGSLDEAGLSYTEKEYDYALLTKKPVIPLLHENPDNLPRDKTETDSNAWKKLQDFRKKVQKKHTCVYWRNADDLKAKVIVGLTSAIKRHPAVGWVRADKVPTETALAEVLSLKNKITELEKEAALLRDKPPSGTEFLAQGNDKYEIHLSFKSRGKFSIFSHDEDKKYNASINLTWNAIFAAVAPSMINEASAHTLRQAFTDFFKRESLKAFQSQKRFENYELVDFSFHKDEIETCIVQLRALGLIKENDRKRSVSDTSTYWTLTPYGNTLMVQLRAIKREPLEDEDLDGTAVES")
"not soluble"
>>> measurement("MYKQILVPVDLNDQGFSDRAVELAVWQAKQANAEIHLLTVLPGIHMSMVATYFPKDAAAKMKQDVKQQLKAFASEHIDDEVIYKVHVAEGKAYATILDYAERLGADLIIMPSHKRSKINKVMLGSVASKVVEYSPINVMVVKPQG")
"not soluble"
>>> measurement("LPHLMKYMGSKRELLDFIISSINDLDIESNWFCDLFSGTSVVGCSLKDEYNVQINDIQIYTSIFANTYLPNINKLINSTELEKIKDRVLFYVDEFYRKYPDLIFDYNSIDNYEKLTKLEIQQQNLIYSNFEIGFHLFVKYYSGTYWSYTQCVWIDSIRAVAEEYKGKSDYYIILSSLIYAMSYTSQSTGHFAQFRDVTESNMHDIMLYRIRDIWTYFEKKFLEILNMVDVEATNRYTITTLDYLDCLRLIERNTIVYADPPYSSVHYSRFYHAIETLIRYDYPNVKYKGRYREDRHQSPFGKKTEVKNAFGKLFKGVKNKNSHLILSYSDNGMITQDEIMEIGNSIMGNQYKGDIQVKEYIHSKMGRSDIHSMGVNELIISYKRQ")
"not soluble"
>>> measurement("MDTSTNLDIGAQLIVEECPSTYSLTGMPDIKIEHPLDPNSEEGSAQGVAMGMKFILPNRFDMNVCSRFVKSLNEEDSKNIQDQVNSDLEVASVLFKAECNIHTSPSPGIQVRHVYTPSTTKHFSPIKQSTTLTNKHRGNEVSTTPLLANSLSVHQLAAQGEMLYLATRIEQENVINHTDEEGFTPLMWAAAHGQIAVVEFLLQNGADPQLLGKGRESALSLACSKGYTDIVKMLLDCGVDVNEYDWNGGTPLLYAVHGNHVKCVKMLLESGADPTIETDSGYNSMDLAVALGYRSVQQVIESHLLKLLQNIKE")
"soluble"

Field: soluble on expression in E. coli. Fill in for each record below.
1. MAHHHHHHMKDIINSDFEDNKDERVIIVDENNEFQELKARKIMRMENLWHRSTSIFVFTKIGEEYFIYVHKRSKVKDYCPSYYSIGFGGVVSENEDMLGNAVKELEEESGIKKSPEQLFDLGVVKCDTECSRSFVGSYVSLTLGKPMPFDGVRPLRIFACSSGNFTLLLIPHAAFFRAVTPSPTGCLHRPRLPDHPPAE
2. MSLATVLVTGATGFIGSHVVEALAPRHDVVGLASSVYPSPRDAVRHVRMTLPHPDLEELVATLRPDVVVHCAGVASVGLSMHSPGVDFQSGPPVVFQLFDAIRKAGLASKVVLLSSAAVYGNPQSLPVGEDAPRAPISPYGWHKGMCEDIAQEFHGTYGIRSAVLRIFSCYGAGLRKQLLWDAAHKLLEGAFVFDGTGDETRDFIHVRDVAAFVTRLVEGWPDGGCVVCNVASGEATRIADLLALLPEAFGLSGVVPVFTGRVRGGDPHHWRADISRARQMGLAPAVSLEEGVREYATWFFAVTGGEGHHHHHH
3. MLTFLFELDKNLPQKDEPRYDAYSKGFIEGDVTICASDSVFFQKSCMKVAELGIYLGQWMEQVQHGQNVPMKYETADREEVILGFFYEEDHNQWIVFSSWQEFELQERIATATLIESVQRYLYELNKELRMIEYPVTFDQYLRGERMMQLSYKRPCDSKADTTPIEVYNGSEQVGVVRGYYKNTLMRALDFIPKIGSNIIYEIKDSKDNIRVIAKDVSRQRQRRILVMYKDNHDAEHEILVCDGKLLDANFLFTFTYKAEEYVVHKTLFGMGKLLRKGYVIADWNIRLEEDMYYIEMNVYDEDYMQDQYLLLGVFHAVLYG
4. MGSDKIHHHHHHMAKLETFYPIVATPKRAGYKEYLPSAVLTGYIRCFWEADDKNFPGNNLVVPDLCADIIFTIDSKTGLVTDAIFVGVSDAPFESDDESNTELFAVRFYAWSLFLFVEQDLTGSMNRVKEPEEMFAGFVSFFQERFAEMTTNMERIALLEEFLLRKLMMLGKQVHPDFLNGIDKLLQNPNQLALGAVSVRQLERLFQKHMGLAPKQTAKLIRFQKVLQALYENPSVPGAELAYLHGFTDQAHLIKQFKRYSNHTPEEMKQIFLQNVANIQ
5. GSPGIPGSTRMAYQHCPFDTLLILDFETTSDAANQDYPCEVIQFAIVAYDVPNDKIREDISFNKYVKPVLNRTLTKNCVDFTGIPQRSIDTADTFDVVYEQFQQWLITLGLEEGKFAFVCDSRQDLWRIAQYQMKLSNIQMPAFFRQYINLYKIFTNEMDRMGPKELSATTNIGKMNEYYDLPTIGRAHDAMDDCLNIATILQRMINMGAKVTVNELLTCCASWRRQPLVYNKEWRSSFMDAGKIFERVLPLVVTTIRAGDFRLEMYGVCRYCRKGMDVCGTSHQQTPHDLYKNEEDPIHFAKIAGYY

["soluble", "soluble", "not soluble", "not soluble", "soluble"]
